Test: Metabolic stability in mouse liver microsomes
Assay type: in vitro ADME
Conditions: mouse, pH 7.4, read-out: CLint(mic)
Can you tell me microsomal CLint at 1 µM for the items I'm about to list?
Numbers only, in µL/min/mg.

CN1CCN(c2ccc(OC(F)(F)F)c(Nc3ncc4c(n3)-c3c(c(C(N)=O)nn3CCO)CC4)c2)CC1 [Onvansertib, reference compound] ... 51
CN1CCN(c2ccc(OC(F)(F)F)c(Nc3ncc4c(n3)-c3c(c(C(=O)NO)nn3CCF)CC4)c2)CC1 ... 119
CCc1sc(C(N)=O)c2c1-c1nc(Nc3cc(N4CCN(C)CC4)ccc3OC(F)(F)F)ncc1CC2 ... 237

// switching to the query compound
Name the reported microsomal CLint at 1 µM value associated with the compound CN1CCN(c2ccc(OC(F)(F)F)c(Nc3ncc4c(n3)-c3c(c(C(=O)NN)nn3CCO)CC4)c2)CC1 31

Origin of values: patent US20260176249A1
